The measured values listed here are drawn from patent US20090221680.

Target: prothrombin (Homo sapiens, UniProt P00734 P00734:44-622)
Assay: filter; 50 nM prothrombin
Conditions: tags: Athens Research
Result type: binding signal (% bound)
Quick note: give the figure in % bound, leave out the unit.

Observe how each entry below is paired with its result.
>  <Binder>
TCCCGGATCCTCGTGGGTATTGTTGGGTTGGGTGGCTGAGGATCGATC (ssDNA) [AMX(399)_G12]

>  <Unit descriptor>
% bound

>  <binding signal>
41.1

$$$$
>  <Binder>
TCCCGATTGATTCTGGGAGGTTTGGTTCTGGGTGGCTGAGGATCGATC (ssDNA) [AMX(399)_D4]

>  <Unit descriptor>
% bound

>  <binding signal>
9.02

$$$$
>  <Binder>
TCCCGTTCGAGTCCTGGTGTTTTATTGGCCTGGGTGGCTGAGGATCGATC (ssDNA) [AMX(399)_D5]

>  <Unit descriptor>
% bound

>  <binding signal>
23.8

$$$$
>  <Binder>
TCCCAGCGGTCCTAATGGGTAGTGTTGGTTTGGGTGGCTGAGGATCGATC (ssDNA) [AMX(398)_D5]

>  <Unit descriptor>
% bound

>  <binding signal>
12.9

$$$$
>  <Binder>
TCCCGATCTATCCGGGGTACATTTGTGGTTTGGGTGGCTGAGGATCGATC (ssDNA) [AMX(399)_C12]

>  <Unit descriptor>
% bound

>  <binding signal>
17.2

$$$$

Could you now look at the following binder, please?
Task item: Consider the binder TCCCATCGATTTGGGGTATGTTATGGGCTCGGGTGGCTGAGGATCGATC (ssDNA) [AMX(398)_A6] and give its measured binding signal.
Reply: 31.3
